The compounds listed here are annotated with their melting point.

Here is how some compounds turned out for melting point.
compound="COc1ccc(S(=O)(=O)C2(CCCC#Cc3ccc(Cl)cc3Cl)SC(=O)NC2=O)cc1 (stereo not shown)" attribute_measured="melting point" value_measured="129 to 133 °C"
compound="COc1ccc(S(=O)(=O)C2(CCCC#Cc3cc(Cl)ccc3C)SC(=O)NC2=O)cc1 (stereo not shown)" attribute_measured="melting point" value_measured="121 to 122 °C"
compound="O=C1NC(=O)C(CCCC#Cc2cc(Cl)ccc2Cl)(S(=O)(=O)c2ccc(Oc3ccncc3)cc2)S1 (stereo not shown)" attribute_measured="melting point" value_measured="179 to 180 °C (dec.)"
compound="COc1ccc(S(=O)(=O)C2(CCCC#Cc3ccc([N+](=O)[O-])cc3)SC(=O)NC2=O)cc1 (stereo not shown)" attribute_measured="melting point" value_measured="156 to 158 °C"
compound="Cc1ccc(Cl)cc1C#CCCCC1(S(=O)(=O)c2ccc(OC(F)(F)F)cc2)SC(=O)NC1=O (stereo not shown)" attribute_measured="melting point" value_measured="196 °C (dec.)"

q: Can you look up the measured melting point of O=C1NC(=O)C(CCCC#Cc2ccc(Cl)cc2)(S(=O)(=O)c2ccc(I)cc2)S1 (stereo not shown) for me?
a: 157 to 159 °C

q: Which melting point value belongs to O=C1NC(=O)C(CCCC#Cc2cccc([N+](=O)[O-])c2)(S(=O)(=O)c2ccc(Oc3ccccc3)cc2)S1 (stereo not shown) ?
a: 190 to 191 °C

====

Biological target: FPTase (Homo sapiens, UniProt P49354+P49356)
Experiment: in vitro FTase Inhibition Assay, K-Ras used as substrate for farnesylation
Format: biochemical
Conditions: Table I
pIC50: −log10 of the molar value.
Attribute Measured: pIC50

Example compounds with recorded pIC50:
compound="COc1ccc(S(=O)(=O)C2(CCCC#Cc3cc(NC(=O)OC(C)(C)C)ccc3C)SC(=O)NC2=O)cc1 (stereo not shown) [Example 150]" value_measured="7.17 to 7.80"
compound="Cc1cc(Cl)ccc1C#CCCCC1(S(=O)(=O)c2ccc(I)cc2)SC(=O)NC1=O (stereo not shown)" value_measured="6.47 to 6.52"

q: Query (compound): CC(=O)Nc1ccc(S(=O)(=O)C2(CCCC#Cc3ccc(Cl)cc3)SC(=O)NC2=O)cc1 (stereo not shown) ; field requested: pIC50
a: ≤ 5.05

q: Which measured pIC50 value corresponds to O=C1NC(=O)C(CCCC#Cc2ccc(Cl)cc2)(S(=O)(=O)c2cccc3cccnc23)S1 (stereo not shown) ?
a: 5.68 to 5.85

q: What value of pIC50 has been recorded for this entry: O=C1NC(=O)C(CCCC#Cc2cc(Cl)ccc2Cl)(S(=O)(=O)c2ccc(Oc3ccncc3)cc2)S1 (stereo not shown)
a: 7.40 to 7.77

q: Query: pIC50; subject: O=C1NC(=O)C(CCCC#Cc2ccc(Cl)cc2)(S(=O)(=O)c2ccc(F)cc2)S1 (stereo not shown)
a: 5.77 to 5.82

q: What value of measured pIC50 is listed for COC(=O)c1ccc(C)c(C#CCCCC2(S(=O)(=O)c3ccc(OC)cc3)SC(=O)NC2=O)c1 (stereo not shown) ?
a: 6.36 to 6.38

====

Entries and their IC50
Target: FPTase (Homo sapiens, UniProt P49354+P49356)
Assay: in vitro FTase Inhibition Assay, H-Ras used as substrate for farnesylation
Type: biochemical
Settings: Table II, read-out: IC50 (wi. H-Ras)
Field format: number, assumed nM, no unit text.

compound="Cc1ccc(S(=O)(=O)C2(CC#Cc3ccc(Cl)cc3)SC(=O)NC2=O)cc1 (centres unmarked)" attribute_measured=IC50 value_measured=70
compound="O=C1NC(=O)C(CC#Cc2cc(C(F)(F)F)cc(C(F)(F)F)c2)S1 (centres unmarked)" attribute_measured=IC50 value_measured=500
compound="Cc1ccc(S(=O)(=O)C2(CC#Cc3cccc(Cl)c3)SC(=O)NC2=O)cc1 (centres unmarked)" attribute_measured=IC50 value_measured=35
compound="Cc1ccc(S(=O)(=O)C2(CC#Cc3ccc(Br)cc3)SC(=O)NC2=O)cc1 (centres unmarked)" attribute_measured=IC50 value_measured=90

q: // IC50 lookup, key: O=C1NC(=O)C(CC#Cc2ccc(Cl)cc2)(S(=O)(=O)c2ccc(Br)cc2)S1 (centres unmarked)
a: 50

q: GET /values?readout=IC50&item= O=C1NC(=O)C(CC#Cc2ccc(Br)cc2)(S(=O)(=O)c2ccc(Cl)cc2)S1 (centres unmarked)
a: 150

q: Which measured IC50 value corresponds to Cc1ccc(S(=O)(=O)C2(CC#Cc3cc(C(F)(F)F)cc(C(F)(F)F)c3)SC(=O)NC2=O)cc1 (centres unmarked) ?
a: 100

q: Which IC50 reading was recorded for the compound Cc1ccc(C#CCC2(S(=O)(=O)c3ccc(C)cc3)SC(=O)NC2=O)cc1 (centres unmarked) ?
a: 300

====

Target: FPTase (Homo sapiens, UniProt P49354+P49356)
Experiment: in vitro FTase Inhibition Assay, K-Ras used as substrate for farnesylation
Assay type: biochemical
Settings: Table I
Reported IC50 values for the following molecules.

molecule="COc1ccc(S(=O)(=O)C2(CCCC#Cc3cc(NC(=O)OCc4ccccc4)ccc3C)SC(=O)NC2=O)cc1 (stereo not shown)" attribute_measured=IC50 value_measured="53 to 520 nM"

q: # get_value(readout='IC50', item= Cc1ccc([N+](=O)[O-])cc1C#CCCCC1(S(=O)(=O)c2ccc(Oc3ccccc3)cc2)SC(=O)NC1=O (stereo not shown) )
a: 910 to 1300 nM

q: Which IC50 is listed for O=C1NC(=O)C(CCCC#Cc2ccc(Cl)cc2)(S(=O)(=O)c2ccc(I)cc2)S1 (stereo not shown) ?
a: 230 to 900 nM

q: May I ask what IC50 has been recorded for Cc1ccc(C(=O)NC(C)(C)C)cc1C#CCCCC1(S(=O)(=O)c2ccc(I)cc2)SC(=O)NC1=O (stereo not shown) ?
a: 80 to 100 nM

====

Target: FPTase (Homo sapiens, UniProt P49354+P49356)
Assay: in vitro FTase Inhibition Assay, K-Ras used as substrate for farnesylation
Type: biochemical
Settings: Table I
pIC50: −log10 of the molar value.
Attribute Measured: pIC50

As a guide, the following entries are already answered.
compound="COc1ccc(S(=O)(=O)C2(CCCC#Cc3cc(NC(=O)OCC(C)C)ccc3C)SC(=O)NC2=O)cc1 (centres unmarked)" attribute_measured=pIC50 value_measured="7.25 to 7.49"
compound="COc1ccc(S(=O)(=O)C2(CCCC#Cc3ccc([N+](=O)[O-])cc3OC)SC(=O)NC2=O)cc1 (centres unmarked)" attribute_measured=pIC50 value_measured="6.00 to 6.68"
compound="Cc1cc([N+](=O)[O-])ccc1C#CCCCC1(S(=O)(=O)c2ccc(Oc3ccccc3)cc2)SC(=O)NC1=O (centres unmarked)" attribute_measured=pIC50 value_measured="6.10 to 6.22"

q: For the compound shown here, COc1ccc(S(=O)(=O)C2(CCCC#Cc3cc(C)ccc3C)SC(=O)NC2=O)cc1 (centres unmarked) , give the reported pIC50.
a: 5.68 to 5.72

q: Request the reported pIC50 associated with O=C1NC(=O)C(CCCC#Cc2ccc(Cl)cc2)(S(=O)(=O)c2ccc(OCc3ccccc3)cc2)S1 (centres unmarked)
a: 6.26 to 6.52

q: Item under review: COc1ccc(S(=O)(=O)C2(CCCC#Cc3ccc(Cl)cc3Cl)SC(=O)NC2=O)cc1 (centres unmarked) . Reported pIC50?
a: 6.00 to 6.29

q: Quick one: pIC50 of CCCCOC(=O)Nc1ccc(C)c(C#CCCCC2(S(=O)(=O)c3ccc(OC)cc3)SC(=O)NC2=O)c1 (centres unmarked) ?
a: 6.89 to 7.00

q: What pIC50 value was documented for this compound, COc1ccc(S(=O)(=O)C2(CCCC#Cc3cc(NC(=O)OC(C)(C)C)ccc3C)SC(=O)NC2=O)cc1 (single isomer, unassigned; more polar) [Example 223] ?
a: < 6.00

q: Name the recorded pIC50 for COC(=O)Nc1ccc(C)c(C#CCCCC2(S(=O)(=O)c3ccc(OC)cc3)SC(=O)N(C(=O)OC)C2=O)c1 (centres unmarked) .
a: 6.00 to 6.64

q: If you can, please state the reported pIC50 value of COc1ccc(S(=O)(=O)C2(CCCC#Cc3ccccc3Cl)SC(=O)NC2=O)cc1 (centres unmarked) .
a: 6.00 to 6.96

q: // lookup pIC50 for COc1ccc(S(=O)(=O)C2(CCCC#Cc3cc([N+](=O)[O-])ccc3C)SC(=O)NC2=O)cc1 (centres unmarked)
a: 6.00 to 6.64

q: Report pIC50 for COc1ccc(S(=O)(=O)C2(CCCC#Cc3ccc([N+](=O)[O-])cc3C)SC(=O)NC2=O)cc1 (centres unmarked) please.
a: 6.00 to 6.49

q: Name the recorded pIC50 for COc1ccc(S(=O)(=O)C2(CCCC#Cc3cc(NC(=O)OCC(C)(C)C)ccc3C)SC(=O)N(C(=O)OCC(C)(C)C)C2=O)cc1 (centres unmarked) .
a: 6.30 to 7.70

q: Endpoint output: pIC50 of COc1ccc(S(=O)(=O)C2(CCCC#Cc3cc(NC(=O)OCc4ccccc4)ccc3C)SC(=O)N(C(=O)OCc3ccccc3)C2=O)cc1 (centres unmarked) . Value?
a: 5.49 to 7.00

q: I have this compound here, COc1ccc(S(=O)(=O)C2(CC#Cc3ccc(-c4ccccc4)cc3)SC(=O)NC2=O)cc1 (centres unmarked) , and I need its recorded pIC50.
a: 5.48

q: Given the compound Cc1ccc(Cl)cc1C#CCCCC1(S(=O)(=O)c2ccc(OC(F)(F)F)cc2)SC(=O)NC1=O (centres unmarked) , what is its reported pIC50?
a: 5.30 to 6.22

q: Consider the compound COc1ccc(S(=O)(=O)C2(CCCC#Cc3ccc(C#N)cc3)SC(=O)NC2=O)cc1 (centres unmarked) and give its measured pIC50.
a: 5.42
